Test system: UO31
Assay: cell viability IC50 over 72 hours, UO31 kidney cell line
Assay type: cell-based
Conditions: Homo sapiens, UO-31
Experimental: FIG. 4 details the sensitivity of various cell lines to LP-184, showing cell death over 72 hours. Sensitivity, gauged by IC50 data, reflects how effectively a substance can inhibit a particular biological or biochemical function. […] This IC50 value, indicating the concentration needed to reduce cell viability by 50%, is key to understanding the compound's efficacy and the temporal response of the cells to the substance. […]
Recorded endpoint: pIC50
One number for each entry, as −log10 of the molar value.

| Molecule | Test system | pIC50 |
| --- | --- | --- |
| CC1=C(CN(O)C(N)=O)C2=C(C)C3(CC3)[C@@](C)(O)C(=O)C2=C1 [LP-184, (−)-hydroxyureamethyl acylfulvene] | UO31 | 6.75 |

From here, focus on the item given below.
Memo: CC1=C(CN(O)C(N)=O)C2=C(C)C3(CC3)[C@](C)(O)C(=O)C2=C1 [LP-284, (+)-hydroxyureamethyl acylfulvene] , reported pIC50: 6.60

The measured values listed here are drawn from patent US20260007617A1.
